Entry source: the supplement of paper PMC6522484

Tested on: SW480
METHOD NOTES: TCF/Wnt firefly luciferase reporter signal relative to plate median (fraction of plate median); higher = higher Wnt reporter signal
STUDY CONDITIONS: 10 µM; treatment time 24 h; reporter: 7TFP
Recorded TCF/Wnt firefly luciferase reporter signal, one value per entry.
Form: value (number only, do not type unit).

Below, 5 molecules whose answers are already recorded.
MOLECULE | TEST RESULT
Cn1c(=O)c(F)c(Nc2ccc(I)cc2F)c2c(=O)n(C[C@@H](O)CO)cnc21 | 2.19
NCC(=O)Nc1ccc(-n2nc(C(F)(F)F)cc2-c2ccc3c(ccc4ccccc43)c2)cc1 | 1.3
Nc1nc(Nc2ccc(S(N)(=O)=O)cc2)nn1C(=O)c1c(F)cccc1F | 1.09
C=CC(=O)Nc1cc2c(Nc3ccc(F)c(Cl)c3)ncnc2cc1OCCCN1CCOCC1 [CI-1033 (Canertinib)] | 0.771
O=C(O)[C@]1(Cc2cccc(Nc3nccs3)n2)CC[C@@H](Oc2cccc(Cl)c2F)CC1 | 0.742

The recorded TCF/Wnt firefly luciferase reporter signal for "Nc1cc(C(F)(F)F)c(-c2cc(N3CCOCC3)nc(N3CCOCC3)n2)cn1" is 0.704
